Cited source: ChEMBL document CHEMBL1201862

tested on: SK-MEL-5; assay: NCI tumour cell line growth inhibition, 48 h
Calls of active or inactive are those of the source. Cut-off read from the data, not from the text of the source: active = GI50 up to about 1.1 µM and inactive = higher.
Assign a class; possible classes are True (active), False (inactive)

Recorded call for `COc1cc([C@@H]2c3cc(O)c(OC)cc3C=C(C(N)=O)[C@H]2C(N)=O)ccc1O` ?
False

Recorded call for `CC12c3c4cccc3Oc3cc(N)cc(c31)Oc1cc(N)cc(c12)O4` ?
False

Recorded call for `N=C(NNS(=O)(=O)c1ccccc1)Oc1ccc(Br)cc1Br` ?
False

Recorded call for `CN(C)c1ccc(C=c2c3cc(O)ccc3n3c2cc(-c2ccccc2)[n+]3C)cc1` ?
True

More entries:
Recorded call for `CC1=C/C(=N/N2C(=O)/C(=C/c3ccc(Cl)cc3)N=C2c2ccccc2)CC(C)(C)C1` ?
False

Recorded call for `O=C1Nc2ccccc2C1=Nc1ccc(S(=O)(=O)Nc2nccs2)cc1` ?
False

Recorded call for Cc1cn(CC2=NCC(C)N2)c(=O)[nH]c1=O (configuration not stated) ?
False

====

system: SNB-19; assay: NCI tumour cell line growth inhibition, 48 h
The source made the active and inactive calls. No stated cut-off is given here; in the data, active = GI50 up to about 1.1 µM and inactive = higher.
REPORTED_METRIC: GI50

See these solved cases before continuing.
The value of GI50 measured for the molecule `CC(=O)Nc1nc(Cl)cc(NCC2(CO)CCC2)n1` turned out to be > 100 µM (inactive)

The value of GI50 measured for the molecule `CCOC(=O)c1cn(CC)c2ccc3ccsc3c2c1=O` turned out to be > 100 µM (inactive)

The value of GI50 measured for the molecule `O=[N+]([O-])c1ccc(-c2nn3c(C45CC6CC(CC(C6)C4)C5)nnc3s2)c(Cl)c1` turned out to be > 100 µM (inactive)

The value of GI50 measured for the molecule `CN1CCN(C)C1c1cccc(C2N(C)CCN2C)c1` turned out to be > 100 µM (inactive)

The value of GI50 measured for the molecule `O=C1Nc2c(Cl)cc(Cl)cc2/C1=N/N=C/c1ccccc1O` turned out to be 61.8 µM (inactive)

Let us examine a further case.
The value of GI50 measured for the molecule `O=C(O)CCNc1ccccc1C(=O)O` turned out to be > 100 µM (inactive)

====

test system: RXF 393; assay: NCI tumour cell line growth inhibition, 48 h
The source made the active and inactive calls. No stated cut-off is given here; in the data, active = GI50 up to about 1.1 µM and inactive = higher. Starred links: 1 amine or outer side, 2 acyl side, 3 side chain; linkers in the order of their positions; H or OH if unused. Residues, ends and D or L forms follow the SMILES beside them. *: point of attachment. γGlu = O=C(O)[CH](CCC(=O)[*:2])N[*:1]; NHOH = ON*
Assign a class; possible classes are active, inactive

Worked cases, answers included:
Recorded call for `Cc1cccc2c(O)c3c(O)cc(O)cc3nc12` ?
inactive

Recorded call for O=C1C(Cl)C(c2ccc(Cl)cc2)N1n1cnc2ccccc2c1=O (stereo not given) ?
inactive

Recorded call for `c1ccc2c(c1)Sc1ccccc1N2CCCN1c2ccccc2Sc2ccccc21` ?
inactive

Recorded call for `CCN(CCCl)CCCCCNc1c2ccccc2nc2ccc(OC)cc12` ?
active

Recorded call for CCOC(=O)CNC(=O)C(CCC(=O)NO)NC(=O)CCC(N)C(=O)O (stereo not given) (γGlu-Glu(NHOH)-Gly-OEt; configuration not given here) ?
inactive

Recorded call for `COCn1c(C)c(C)c2c(=O)oc(N(C)C)nc21` ?
inactive

Recorded call for `CCCCCCCCCCCCCP(=O)(O)NCC(N)=O` ?
inactive

Recorded call for COc1ccc(-c2cc(-c3ccco3)c(C#N)c(=S)n2C2OC(COC(C)=O)C(OC(C)=O)C(OC(C)=O)C2OC(C)=O)cc1 (stereo not given) ?
inactive

More entries:
Recorded call for `O=C1Nc2ccc(S(=O)(=O)O)cc2/C1=C1/Nc2ccc(Br)cc2C1=O` ?
inactive

Recorded call for `Cn1c(=O)c2c(nc3[nH]c(=O)c(Br)cn32)n(C)c1=O` ?
inactive

Recorded call for `Cc1cc(N(CCC#N)CCC#N)ccc1/C=C1N=C(/C=C\c2ccccc2)OC\1=O` ?
inactive

Recorded call for OC1CC1Sc1ccccc1 (stereo not given) ?
inactive

Recorded call for `CC1=C/C(=N/N2C(=O)/C(=C/c3ccc(Cl)cc3)N=C2c2ccccc2)CC(C)(C)C1` ?
inactive

Recorded call for `O=C1c2c(Br)sc(Br)c2C(=O)C1(O)O` ?
inactive

Recorded call for `C=CCCCCCCCCC(=O)O` ?
inactive

Recorded call for CCOC(=O)NC(NC(C)CC)(C(F)(F)F)C(F)(F)F (stereo not given) ?
inactive

Recorded call for CCOC(=O)C(Cc1ccc(OC(=O)c2ccc(OC)cc2)cc1)NC(=O)C(F)(F)F (stereo not given) ?
inactive

Recorded call for CCN(/C=C1/C(=O)C(c2ccccc2)N(c2ccccc2)C1=O)CC (stereo not given) ?
inactive

Recorded call for `CCOc1ncn(-c2ccc(NC(=S)Nc3cnccn3)cc2)n1` ?
inactive

Recorded call for `O=C(c1ccccc1)c1ccc2[nH]c(-c3c(Cl)c(Cl)c(Cl)c(Cl)c3C(=O)N/N=C\C=C\c3ccccc3)nc2c1` ?
inactive

Recorded call for `O=C(CCc1nnc2s/c(=C\c3ccc4c(c3)OCO4)c(=O)n12)Nc1cc(Cl)ccc1Cl` ?
inactive

Recorded call for `O=C1CSC(/C(=C\c2ccc(Cl)cc2)c2nc3ccccc3[nH]2)=N1` ?
active
